# Lookup of reported self-cleavage keyed by entry
B1: LINE1-full (parent)
chain: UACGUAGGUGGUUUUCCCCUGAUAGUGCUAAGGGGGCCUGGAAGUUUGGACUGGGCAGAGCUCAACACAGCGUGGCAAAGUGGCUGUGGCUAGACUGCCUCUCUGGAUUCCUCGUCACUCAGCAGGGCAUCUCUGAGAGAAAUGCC

Variants of: B1
assayProtocol: self-cleavage, relative activity (ratio to wild type); higher = more cleavage; in vitro, sequencing; the parent is a self-cleaving ribozyme

| changes | self-cleavage |
| --- | --- |
| G54A A129U | 0.4 |
| A43G U91C | 0.37 |
| U112C U132G | 1.53 |
| U46A U52G | 1.33 |
| U15C G35U | 1.55 |
| G4C | 1.17 |
| U15A U130C | 0.67 |
| C19U C120U | 1.25 |
| U13C A50U | 0.83 |
| U104C A141G | 1.69 |
| A50U G70C | 0 |
| A121U | 1.34 |
| U23C A117C | 1.51 |
| U20G U109C | 0.93 |
| C98U U112C | 0.26 |
| G33U G144A | 1.21 |
| U100A C133U | 0.54 |
| A79U U85A | 0.07 |
| U20C U45A | 1.2 |
| C68A U73C | 0.05 |
| G55C A141G | 0.55 |
| A92C G93U | 0.06 |
| U12C U119G | 1.5 |
| U20A A124U | 0.91 |
| U39C G135A | 1.2 |
| C71A U73C | 0.31 |
| U12G G114A | 1.07 |
| U1C U81A | 1.64 |
| U9A G89A | 0.1 |
| U87C U104C | 0.22 |
| C68A C146U | 0.06 |
| U96A G127A | 0.06 |
| U23C U45G | 1.02 |
| U46G A140G | 1.78 |
| A67G G80A | 0.79 |
| U85C G127U | 0.14 |
| U81C G83A | 1.46 |
| G40A U52A | 1.25 |
| A30U U45G | 0.74 |
| U81C A94C | 0 |
| C99U U112C | 0.36 |
| A50G A78U | 1.2 |
| G74A U119A | 0.84 |
| A94U U143A | 0.21 |
| U85C A117G | 0.15 |

Recorded values, source the RNAGym collection of RNA variant scans (doi:10.7554/elife.90254).
